- System: NCI-H23 lung
- PROCEDURE DETAILS: NCI-60 one-dose screen, 48 h
- COND: 10 µM unless noted
About 83,000 compounds went through this panel and 20% of them were active in at least one assay; those are over-represented in the sample as a whole. Active and inactive are the calls of the source. How the source made its calls: active means growth percent below 10; inactive means the rest.
I would appreciate it if you answered using one of these outcomes: active, inactive

Previously resolved entries follow.
Would you mind telling me which call this test gave `COc1cc(-c2nc(N3CCN(C)CC3)c3ccccc3n2)cc(OC)c1OC` ?
inactive

Query: recorded result category for CC(=O)O[C@]1(C(C)=O)CCC2C3C[C@H](C)C4=CC(=O)CC[C@]4(C)C3CC[C@@]21C (stereo not given in full) in this test
inactive

What did this assay record as the result for `COc1cc(C(=O)/C=C/c2c(C(F)(F)F)nc3sccn23)cc(OC)c1OC` ?
active

GET /call?item= N#CC1=C(NC=O)Oc2c(ccc3ccccc23)C1c1ccccc1 (stereo not given) returns the recorded outcome of this test.
inactive

Next:
Recorded test outcome, item `O=C(N=c1oc2ccccc2cc1-c1cc2ccccc2[nH]1)c1ccc(Cl)cc1`
inactive

====

- System: SK-MEL-2 melanoma
- PROCEDURE DETAILS: NCI-60 one-dose screen, 48 h
- COND: 10 µM unless noted
The panel holds about 83,000 compounds, 20% with a hit somewhere; the sample as a whole holds those more often. Activity calls are given as the source filed them. Rule for the calls: active = growth percent below 10; inactive = the rest.
Choose the fitting class; nothing outside active, inactive is accepted.

Look up the recorded call for `COC(=O)c1ccc(CSc2nnc(-c3c(C)nc4ccc(C)cn34)o2)cc1` in this test.
inactive

Which outcome did this test record for the compound `Cc1ccc(Cc2cnc(NC(=O)c3ccc4noc(-c5ccccc5)c4c3)s2)cc1` ?
inactive

Tell me the assay call for `Cc1cccc(NC(=O)N/C(N)=N/c2nc(C)c(C)s2)c1` please.
inactive

State the result this test recorded for `Cn1c(I)c(C#C[Si](C)(C)C)c(=O)n(C(=O)c2ccccc2)c1=O` .
inactive

Which outcome was assigned to `COc1cc(/C=N/Nc2ncc(-c3cc4cc5c(cc4o3)OCO5)s2)cc(OC)c1OC` in this test?
inactive

Outcome logged for `COc1cccc(Nc2nccc(Nc3ccc4[nH]ncc4c3)n2)c1` in this assay:
active

Hello, I am checking results. What call was entered for `CCCCNC(=O)Oc1ccc2c(=O)c3sc4c(=O)c5ccccc5c(=O)c4c3c(=O)c2c1` ?
active

Call for entry `CC(C)=C[C@@H]1c2c(c3ccccc3n(C)c2=O)O[C@H]2c3c(c4ccccc4n(C)c3=O)OC(C)(C)[C@@H]12` :
inactive

// outcome(item) with item = `C[C@@]1(CCC#N)[C@H]2CC[C@@H]3[C@H]4[C@H](C(=O)/C=C/c5cccnc5)CC[C@]4(C#N)CC[C@@]3(C)[C@]2(C)CC[C@H]1C(=O)/C=C/c1cccnc1`
inactive

For COc1cccc2c1C(=O)c1c(O)c3c(c(O)c1C2=O)CC(O)(/C(C)=N/NC(=O)CCCCC(=O)N/N=C(\C)C1(O)Cc2c(O)c4c(c(O)c2C(OC2CC(N)C(O)C(C)O2)C1)C(=O)c1c(OC)cccc1C4=O)CC3OC1CC(N)C(O)C(C)O1 (stereo not drawn) , which call appears in the assay record?
active

Status in this test for `CCOC(=O)/C=C/c1cc2cc(-c3csc4ccccc34)ccc2[nH]1` ?
inactive

What call does the record list for `Cc1cc(NCc2cc(Nc3ccnc4cc(Cl)ccc34)ccc2F)nc(N2CCN(C)CC2)n1` ?
active

What did the test return for `O=[N+]([O-])c1ccc(OCCO)cc1` ?
inactive

Per the assay record, what outcome was assigned to O=C(NC(Cc1nnc2n(Cc3ccccc3)c(=O)c3c4c(sc3n12)CCCC4)c1ccc(Cl)cc1)c1ccccc1 (stereo not drawn) ?
inactive

Field: outcome | Entry: `NCCCNc1nc2ccccc2c2c(=O)c3cccc(Cl)c3sc12`
inactive
